koff values, listed per item
measured_target: T1, cynomolgus monkey BCMA (cynomolgus monkey, UniProt A0A2K5UD97 1-53)
T1 construct: Soluble analyte in SPR; construct not described; also called cyBCMA; Cyno BCMA
T1 sequence (A0A2K5UD97 entry or part of it): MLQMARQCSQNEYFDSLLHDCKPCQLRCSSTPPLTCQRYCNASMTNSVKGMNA
method_notes: SPR, IgG on chip, cyBCMA analyte, 37C
Give the number; s⁻¹ is assumed, so skip it.

Take a look at these entries with their results.
[
  {
    "binder": "L3.PY/L1.PH/H2.QR (antibody, V domains shown, IgG) VH: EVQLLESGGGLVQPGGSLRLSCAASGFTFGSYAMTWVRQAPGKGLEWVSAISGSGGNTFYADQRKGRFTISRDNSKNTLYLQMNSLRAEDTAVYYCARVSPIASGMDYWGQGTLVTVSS VL: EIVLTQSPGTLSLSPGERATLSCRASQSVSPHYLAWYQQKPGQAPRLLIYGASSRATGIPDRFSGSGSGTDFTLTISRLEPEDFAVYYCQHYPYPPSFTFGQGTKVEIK",
    "result_units": "s⁻¹",
    "koff": 0.00436
  },
  {
    "binder": "L3.PY/L1.FF/H2.QR (antibody, V domains shown, IgG) VH: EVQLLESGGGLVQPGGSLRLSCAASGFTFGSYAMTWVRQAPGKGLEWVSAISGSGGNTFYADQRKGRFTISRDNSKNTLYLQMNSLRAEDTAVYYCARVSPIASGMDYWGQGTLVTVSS VL: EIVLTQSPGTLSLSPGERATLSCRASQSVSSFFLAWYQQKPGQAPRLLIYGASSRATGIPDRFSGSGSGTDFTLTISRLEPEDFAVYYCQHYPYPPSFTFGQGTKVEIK",
    "result_units": "s⁻¹",
    "koff": 0.00421
  },
  {
    "binder": "L3.PY/L1.PH/H3.AE (antibody, V domains shown, IgG) VH: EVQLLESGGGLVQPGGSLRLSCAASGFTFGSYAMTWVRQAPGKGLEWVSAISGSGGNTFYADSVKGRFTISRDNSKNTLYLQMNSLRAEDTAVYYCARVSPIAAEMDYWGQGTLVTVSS VL: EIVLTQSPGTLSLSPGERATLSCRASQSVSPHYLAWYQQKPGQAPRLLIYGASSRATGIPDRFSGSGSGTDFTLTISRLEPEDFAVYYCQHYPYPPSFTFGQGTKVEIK",
    "result_units": "s⁻¹",
    "koff": 0.00202
  },
  {
    "binder": "L3.PY/L3.KF/H3.AQ (antibody, V domains shown, IgG) VH: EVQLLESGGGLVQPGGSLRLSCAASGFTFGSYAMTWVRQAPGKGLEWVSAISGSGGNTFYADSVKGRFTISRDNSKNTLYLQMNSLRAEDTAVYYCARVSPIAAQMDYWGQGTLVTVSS VL: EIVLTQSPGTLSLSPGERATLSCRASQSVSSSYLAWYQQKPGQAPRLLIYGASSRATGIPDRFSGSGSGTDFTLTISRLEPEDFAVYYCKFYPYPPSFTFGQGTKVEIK",
    "result_units": "s⁻¹",
    "koff": 0.00238
  }
]

Identify measured koff associated with L3.PY/L3.KY/H2.QL (antibody, V domains shown, IgG) VH: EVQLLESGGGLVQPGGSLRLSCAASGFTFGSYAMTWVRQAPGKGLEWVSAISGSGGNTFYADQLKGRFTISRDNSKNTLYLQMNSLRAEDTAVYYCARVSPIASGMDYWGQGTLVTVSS VL: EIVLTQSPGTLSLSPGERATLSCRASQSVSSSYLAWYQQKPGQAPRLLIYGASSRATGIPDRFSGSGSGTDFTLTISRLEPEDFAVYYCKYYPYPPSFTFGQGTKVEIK 0.00409

Ref: patent US20190241669A1
